From: ChEMBL document CHEMBL5321285

target: Sigma non-opioid intracellular receptor 1 (Homo sapiens); test: Displacement of [3H]-(+)-pentazocine from human sigma1 receptor transfected in HEK293 cell membranes assessed as inhibition constant incubated for 120 mins in presence of haloperidol by microbeta scintillation counter analysis; parameters: species or system Cell membrane
Sequence (Q99720 whole entry): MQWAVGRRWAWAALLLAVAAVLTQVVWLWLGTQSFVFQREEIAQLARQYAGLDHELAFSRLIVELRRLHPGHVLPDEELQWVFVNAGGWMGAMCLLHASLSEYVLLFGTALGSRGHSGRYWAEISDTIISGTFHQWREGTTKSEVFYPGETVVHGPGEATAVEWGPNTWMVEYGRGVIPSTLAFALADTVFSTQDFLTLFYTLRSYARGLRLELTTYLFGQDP
pKi: −log10 of the molar value.
Property Name: pKi

Examples with answers:
{"Molecule": "Cc1cc(-c2cnc(C(F)(F)F)nc2C2CCN(CC(=O)N3CCOCC3)CC2)on1", "Property Name": "pKi", "Observed Measurement": "< 6.00"}
{"Molecule": "Cc1cc(-c2cnc(C)nc2C2CCN(C(=O)CN3CCOCC3)CC2)on1", "Property Name": "pKi", "Observed Measurement": "< 6.00"}
{"Molecule": "CCc1ncc(-c2nccn2C)c(C2CCN(CC(=O)N3CCOCC3)CC2)n1", "Property Name": "pKi", "Observed Measurement": "< 5.00"}
{"Molecule": "CCc1ncc(-c2cc(C)no2)c(C2CCCN(CC(=O)N3CCOCC3)CC2)n1 (stereo unspecified)", "Property Name": "pKi", "Observed Measurement": 6.63}
{"Molecule": "CCc1ncc(-c2cc(C)no2)c(C2CCN(CCC(=O)N3CCOCC3)CC2)n1", "Property Name": "pKi", "Observed Measurement": "< 6.00"}

response.value for CCc1ncc(-c2cc(C)no2)c(C2CCN(CCN3CCOCC3)CC2)n1 (field: pKi) = 6.82

response.value for CCc1ncc(-c2cc(C)no2)c(C2CCN(CC(=O)N3CCCCC3)CC2)n1 (field: pKi) = 6.05

response.value for CCc1ncc(-c2cccc(C)n2)c(C2CCN(CC(=O)N3CCOCC3)CC2)n1 (field: pKi) = < 6.00

response.value for CCn1cc(-c2cc(C)no2)c(C2CCN(CC(=O)N3CCOCC3)CC2)n1 (field: pKi) = < 6.00

response.value for CCc1ncc(-c2cc(C)no2)c(C2CCN(CC(=O)N3CCCN(C)CC3)CC2)n1 (field: pKi) = < 6.00

response.value for CCc1ncc(-c2cc(C)no2)c(C2CCN(CC(=O)N3CCC4(CCOC4)CC3)CC2)n1 (field: pKi) = 5.67
